# System: OVCAR-3 ovarian
# Measurement Description: NCI-60 one-dose screen, 48 h (100 = growth as untreated, 0 = no growth, -100 = all killed)
# Measurement Setup: 10 µM unless noted
# Experimental: Growth inhibition of the OVCAR-3 human tumor cell line is measured as a screen for anti-cancer activity. Cells are grown in 96 well plates and exposed to the test compound for 48 hours. Compounds are tested at a single concentration, which is 10^-5 M for most compounds. The reported endpoint is percent growth (GI% or GIPRCNT), where numbers from 0 - 100% represent growth inhibition, and numbers from -100% - 0 represent cell death. For example, a value of 40 represents 60% growth inhibition. […]
About 83,000 compounds went through this panel and 20% of them were active in at least one assay; those are over-represented in the sample as a whole.
growth below 90% gives not satisfied; growth at or above it gives satisfied.

Use the examples below as a reference point.
Nc1nc(Cl)cc(=O)n1Cc1ccccc1 ... satisfied
COC(=O)c1ccc2[nH]c(O)c(C(=Nc3ccc(N(C)C(=O)CN4CCN(C)CC4)cc3)c3ccccc3)c2c1 ... not satisfied
C=C1CC[C@H](C(C)C)[C@@H]2[C@H]1[C@H]1CC(=C)[C@@H](O)CC[C@@](C)(O)[C@@H]2O1 ... satisfied
CC1=C(C)C(=O)C(Nc2cccc(C(=O)OC(C)(C)C)c2)=C(Br)C1=O ... not satisfied
CCOC(=O)CC1C(COC(=O)NC)OC(n2cnc3c(NC(=O)Nc4ccccc4)ncnc32)C1O[Si](C)(C)C(C)(C)C (stereo not drawn) ... not satisfied

Qu. Could you tell me if the measured growth of Cc1c(C(=O)NCCCc2ccccc2)sc2ncc(-c3ccc(Br)cc3)n12 reaches 90% or more?
Ans. satisfied

Qu. # iterate: COc1ccccc1/C=C1\Oc2cc(OCCN3CCC(Cc4ccccc4)CC3)ccc2C1=O
Ans. satisfied

----------
# Test system: HCC-2998 colon
# Measurement Description: NCI-60 one-dose screen, 48 h
# Measurement Setup: 10 µM unless noted
This is part of a sample that, as a whole, favours compounds with a hit. Of some 83,000 tested, about 20% had one in any assay. Calls of active or inactive are those of the source. Rule for the calls: active = growth percent below 10; inactive = the rest.
Result category, one only: t = active, f = inactive

Worked cases, answers included:
CC(=O)Oc1ccccc1C(=O)N=C1[Se]CCCN1C(=O)c1ccccc1OC(C)=O ... f
N#Cc1c(-c2ccccc2)nc(SCC(=O)Nc2nc(-c3ccc(Cl)cc3)cs2)[nH]c1=O ... f
O=C(/C=C/c1ccc([N+](=O)[O-])o1)NNC(=O)c1cc2ccccc2cc1O ... t
COc1ccc2c(c1OC)C(=O)O[C@H]2[C@H]1c2c(cc3c(c2OC)OCO3)CCN1C ... f
O=C1COCCN1c1ccc(NCc2cn(C(=O)c3ccc(Cl)cc3)c3ccccc23)cc1 ... f

Qu. Please let me know the test result on file for C=C(C)C1CCC2(C)OC2C1 (stereo unspecified) .
Ans. f

Qu. Can you handle Cc1cc(=O)oc2cc(OC(=O)CN3CCN(C)CC3)ccc12 next?
Ans. f

Qu. Can you check C#Cc1cccc(NC(=O)c2ccc(NC(=O)C=C)cc2)c1 next?
Ans. f

Qu. Here is the next compound: COc1ccc2sc3c(NCCCN(C)C)nc4ccccc4c3c(=O)c2c1
Ans. t

Qu. Another compound: COc1ccc(-c2cc(-c3ccc(Cl)cc3)c(C#N)c(=O)n2CCCCCC(=O)Nc2ccccc2N)cc1
Ans. f

Qu. // repeat for CNc1nc2c(s1)C(c1cc(F)ccc1F)CC(=O)N2 (stereo unspecified) and report
Ans. f

Qu. // repeat for O=C1CCC/C=C\C[C@H]2C=CC(=O)/C2=C/C[C@H](CCc2cccc(C(F)(F)F)c2)O1 and report
Ans. t

----------
# Test system: MDA-MB-435 melanoma
# Measurement Description: NCI-60 one-dose screen, 48 h
# Measurement Setup: 10 µM unless noted
# Protocol: Growth inhibition of the MDA-MB-435 human Melanoma tumor cell line is measured as a screen for anti-cancer activity. Cells are grown in 96 well plates and exposed to the test compound for 48 hours. Compounds are tested at a single concentration, which is 10^-5 M for most compounds. The reported endpoint is percent growth (GI% or GIPRCNT), where numbers from 0 - 100% represent growth inhibition, and numbers from -100% - 0 represent cell death. […]
About 83,000 compounds went through this panel and 20% of them were active in at least one assay; those are over-represented in the sample as a whole. Activity calls are given as the source filed them. Rule for the calls: active = growth percent below 10; inactive = the rest.
Hi! Could you answer with just one of these? t for active, f for inactive

O=C1c2ccccc2NC(n2sc3ccccc3c2=O)N1c1ccccc1 (stereo unspecified) ... f
C/C(=C\C(=O)c1ccc(Cl)cc1)c1ccc(Cl)cc1 ... f
CC1=C([Se]CC(OC(=O)[C@@H](CSSC(C)(C)C)NC(=O)OC(C)(C)C)C(=O)NC(C)(C)C)C(=O)c2ccccc2C1=O (stereo partly specified) ... t

Qu. Called result for C[C@]12CC[C@@H]3c4cc(OC(F)F)c(OS(N)(=O)=O)cc4CC[C@H]3[C@@H]1CC[C@@H]2O
Ans. t

Qu. Then COc1ccc(C(=S)N2CCN(c3cccc(C)c3)CC2)cc1OC ?
Ans. t

Qu. Next up: N#Cc1cccc(NC(=O)c2cc(-c3ccc(F)cc3F)ccc2O)c1
Ans. t

----------
Could you please report measured growth for the items listed next?
# System: SK-MEL-5 melanoma
# Measurement Description: NCI-60 one-dose screen, 48 h (100 = growth as untreated, 0 = no growth, -100 = all killed)
# Measurement Setup: 10 µM unless noted
About 83,000 compounds went through this panel and 20% of them were active in at least one assay; those are over-represented in the sample as a whole.
Answers are plain numbers, in %.

Solved cases (2 shown):
CN1CCN(c2ccc(-c3cc4c(Nc5ccc(F)c(Cl)c5)ncnn4c3)cn2)CC1 ... 100
Cc1ccc(/C=C(\C#N)n2nc3cccc(F)c3n2)cc1 ... 89.9

Below: the item to evaluate.
Qu. So what does the record say about growth for CCCCC1CCCC12NC(=O)NC2=O (stereo not drawn) ?
Ans. 117

----------
# Tested on: MOLT-4 leukemia
# Measurement Description: NCI-60 one-dose screen, 48 h (100 = growth as untreated, 0 = no growth, -100 = all killed)
# Measurement Setup: 10 µM unless noted
About 83,000 compounds went through this panel and 20% of them were active in at least one assay; those are over-represented in the sample as a whole.
// classify: if (growth < 60%) TRUE else FALSE

Below are worked cases with known answers.
CC1=C([Se]CC(OC(=O)[C@@H](CSSC(C)(C)C)NC(=O)OC(C)(C)C)C(=O)NC(C)(C)C)C(=O)c2ccccc2C1=O (stereo partly specified) ... TRUE
CCOC(=O)C1=C(N)Oc2c(sc3c(C)cccc23)C1c1ccc(F)cc1 (stereo unspecified) ... TRUE

Qu. Given the entry COc1cc(C)c(Cc2cnc(N)nc2N)cc1OC , would its reported growth be below 60%?
Ans. FALSE

Qu. COc1ccc(C(=O)n2nc(-c3ccccc3)nc2N)cc1OC ?
Ans. FALSE

Qu. Now the same for C=C1CC[C@H](C(C)C)[C@@H]2[C@H]1[C@H]1CC(=C)[C@@H](O)CC[C@@](C)(O)[C@@H]2O1
Ans. FALSE

Qu. Record: COC(=O)c1ccc2[nH]c(O)c(C(=Nc3ccc(N(C)C(=O)CN4CCN(C)CC4)cc3)c3ccccc3)c2c1
Ans. TRUE

Qu. Consider next the compound CCCCn1c(=O)c(-c2cc(-c3ccc(Cl)cc3)nc(-c3ccc(Cl)cc3)c2)cc2ccc(Cl)cc21 in the same way.
Ans. FALSE

Qu. Check CC(=O)OC[C@H]1OC(Sc2sc(C(=O)c3ccc(C)cc3)c(N)c2-c2nc3ccccc3s2)[C@H](OC(C)=O)[C@@H](OC(C)=O)[C@@H]1OC(C)=O (stereo partly specified) too.
Ans. FALSE

Qu. Now give it for CCOC(=O)Cn1c(=O)c2c(c3ccccc3n2C)n2nnc(-c3ccccc3)c12 too.
Ans. FALSE

Qu. Also, Cc1ccc(C2CC(c3ccc(Nc4ccnc5cc(Cl)ccc45)cc3)=NN2C=O)cc1 (stereo unspecified) please.
Ans. TRUE

Qu. How about this compound: COc1ccc2cc(C(C)C(=O)Nc3ccc(-c4n[nH]c(=S)n4C4CCCCC4)cc3)ccc2c1 (stereo unspecified)
Ans. TRUE

----------
# Test system: SNB-19 CNS
# Measurement Description: NCI-60 one-dose screen, 48 h (100 = growth as untreated, 0 = no growth, -100 = all killed)
# Measurement Setup: 10 µM unless noted
About 83,000 compounds went through this panel and 20% of them were active in at least one assay; those are over-represented in the sample as a whole. Calls of active or inactive are those of the source. The calls were made as follows: active = growth percent below 10; inactive = the rest.
Consider the following compounds; for each one, report its growth.

Illustrative cases are given below, each with its answer.
CCOC(=O)C1=C(N)Oc2c(sc3c(C)cccc23)C1c1ccc(F)cc1 (configuration not stated) ... 26.3% (inactive)
NC1=NC(c2cccc(Br)c2)c2sc3ccc(Cl)cc3c2N1 (configuration not stated) ... 97.3% (inactive)
NCCCNc1nc2ccccc2c2c(=O)c3cccc(F)c3sc12 ... 44% (inactive)
Cc1nn(-c2ccccc2)c(-n2ccnc2)c1/C=N/Nc1nc(-c2ccc(Cl)c(Cl)c2)cs1 ... 46% (inactive)
CCc1ccccc1-n1c(N)c(C#N)c(-c2ccc(Cl)cc2)c(C#N)c1=O ... 111% (inactive)
O=C(Nc1nc2ccc(F)cc2s1)c1cccnc1Nc1ccc(Cl)cc1Cl ... 20.2% (inactive)

Shifting focus to the compound that follows.
Qu. Field request: growth | item: C#Cc1cccc(NC(=O)c2ccc(NC(=O)C=C)cc2)c1
Ans. 84.5% [8.25 µM] (inactive)
